# TEST PROTOCOL: Mass balance study: plasma PK of eravacycline, TP-498 and TP-6208 (LC-MS)
# Assay type: in vivo, human
# STUDY CONDITIONS: human, plasma, iv, 60 mg; single i.v. dose of [14C]eravacycline, geometric mean (%CV), n = 5
MEASURED PARAMETER: CL renal (mL/min)
Numeric answer only, unit mL/min assumed.

Ask: Item under review: CN(C)[C@@H]1C(O)=C(C(N)=O)C(=O)[C@@]2(O)C(O)=C3C(=O)c4c(O)c(NC(=O)CN5CCCC5)cc(F)c4C[C@H]3C[C@@H]12 . Reported CL renal?
Reply: 41.9

* * *

# TEST PROTOCOL: Drug interaction study with itraconazole (CYP3A4 inhibitor): plasma PK of i.v. eravacycline and metabolites
# Format: in vivo, human
# STUDY CONDITIONS: human, plasma, iv; day 1, eravacycline 1 mg/kg i.v. alone, mean ± SD, n = 10
MEASURED PARAMETER: Cmax (ng/mL)
Numeric answer only, unit ng/mL assumed.

Ask: Item under review: CN(C)[C@@H]1C(O)=C(C(N)=O)C(=O)[C@@]2(O)C(O)=C3C(=O)c4c(O)c(NC(=O)CN5CCCC5)cc(F)c4C[C@H]3C[C@@H]12 . Reported Cmax?
Reply: 1100

* * *

# TEST PROTOCOL: Mass balance study: plasma PK of eravacycline, TP-498 and TP-6208 (LC-MS)
# Assay type: in vivo, human
# STUDY CONDITIONS: human, iv, 60 mg; plasma, single i.v. dose of [14C]eravacycline, geometric mean (%CV), n = 2
MEASURED PARAMETER: clearance

Ask: Item under review: CN(C)[C@@H]1C(O)=C(C(N)=O)C(=O)[C@@]2(O)C(O)=C3C(=O)c4c(O)c(NC(=O)CN5CCCC5)cc(F)c4C[C@H]3C[C@@H]12 . Reported clearance?
Reply: 228 mL/min
